system: Rattus norvegicus; assay: Toxicity in Wistar albino rat assessed as ulcer index at 20 mg/kg, ip administered once daily for 3 days; assay type: organism-based; set-up: dose 20 mg/kg, route intraperitoneal; conditions: in vivo, 72 h
ASSAY_ENDPOINT: UI
Lab note: jot the number down without any unit.

What value of UI has been recorded for this entry: CN1CCN(c2ccc(-c3c(C#N)c(N)nc4[nH]c(=S)[nH]c(=O)c34)cc2)CC1
0.51

Consider the compound Nc1nc(=S)[nH]c2nc3[nH]c(=S)[nH]c(=O)c3c(-c3ccc(N4CCOCC4)cc3)c12 and give its measured UI.
0.67

Sample N=c1sc(=S)[nH]c2nc3[nH]c(=S)[nH]c(=O)c3c(-c3ccc(N4CCCCC4)cc3)c12 — what was its UI?
0.73

Look up UI for this compound: N#Cc1c(N)nc2[nH]c(=S)[nH]c(=O)c2c1-c1ccc(N2CCCCC2)cc1
0.58

Request the reported UI associated with O=c1[nH]cnc2nc3[nH]c(=S)[nH]c(=O)c3c(-c3ccc(N4CCOCC4)cc3)c12
0.86

What does the data say about its UI? Entry: Nc1nc(=O)[nH]c2nc3[nH]c(=S)[nH]c(=O)c3c(-c3ccc(N4CCCCC4)cc3)c12
0.72

Request the reported UI associated with N#Cc1c(N)nc2[nH]c(=S)[nH]c(=O)c2c1-c1ccc(N2CCOCC2)cc1
0.54

Item under review: N=c1sc(=S)[nH]c2nc3[nH]c(=S)[nH]c(=O)c3c(-c3ccc(N4CCOCC4)cc3)c12 . Reported UI?
0.89

Field request: UI | item: CN1CCN(c2ccc(-c3c4c(N)ncnc4nc4[nH]c(=S)[nH]c(=O)c34)cc2)CC1
0.69

Looking for the measured UI of Cc1nc2nc3[nH]c(=S)[nH]c(=O)c3c(-c3ccc(N4CCCCC4)cc3)c2c(=O)[nH]1 , can you help?
0.9

Can you share its UI? I mean this compound: CN1CCN(c2ccc(-c3c4c(=O)[nH]c(=S)[nH]c4nc4[nH]c(=S)sc(=N)c34)cc2)CC1
0.85

Recorded UI for Nc1nc(=S)[nH]c2nc3[nH]c(=S)[nH]c(=O)c3c(-c3ccc(N4CCCCC4)cc3)c12 , please?
0.69

Entry Nc1ncnc2nc3[nH]c(=S)[nH]c(=O)c3c(-c3ccc(N4CCOCC4)cc3)c12 : reported UI = ?
0.7

Which UI reading was recorded for the compound O=C([O-])Cc1ccccc1Nc1c(Cl)cccc1Cl.[Na+] [DICLOFENAC SODIUM] ?
1.65

Sample O=c1[nH]cnc2nc3[nH]c(=S)[nH]c(=O)c3c(-c3ccc(N4CCCCC4)cc3)c12 — what was its UI?
0.89

Look up UI: Nc1ncnc2nc3[nH]c(=S)[nH]c(=O)c3c(-c3ccc(N4CCCCC4)cc3)c12
0.58

----------
test system: Mus musculus; assay: Analgesic activity in Wister albino mice at 20 mg/kg, po after 3 hrs by tail-flick test
ASSAY_ENDPOINT: Activity (%)
Numeric answer only, unit % assumed.

What measured Activity goes with Cc1nc2nc3[nH]c(=S)[nH]c(=O)c3c(-c3ccc(N4CCCCC4)cc3)c2c(=O)[nH]1 ?
42

Give the measured Activity of O=C([O-])Cc1ccccc1Nc1c(Cl)cccc1Cl.[Na+] [DICLOFENAC SODIUM] .
39

I would be grateful if you could share the reported Activity for Nc1nc(=S)[nH]c2nc3[nH]c(=S)[nH]c(=O)c3c(-c3ccc(N4CCOCC4)cc3)c12 .
46

Activity lookup needed for O=c1[nH]cnc2nc3[nH]c(=S)[nH]c(=O)c3c(-c3ccc(N4CCOCC4)cc3)c12 , thanks.
36

I have this molecule here, N=c1sc(=S)[nH]c2nc3[nH]c(=S)[nH]c(=O)c3c(-c3ccc(N4CCCCC4)cc3)c12 , and I need its recorded Activity.
39
